target: CYP2C8 (Homo sapiens, UniProt P10632); test: In vitro competitive and time-dependent inhibition of CYP2C8; assay type: in vitro ADME; details: read-out: CYP2C8 KI; time-dependent inhibition
Sequence (P10632 whole entry): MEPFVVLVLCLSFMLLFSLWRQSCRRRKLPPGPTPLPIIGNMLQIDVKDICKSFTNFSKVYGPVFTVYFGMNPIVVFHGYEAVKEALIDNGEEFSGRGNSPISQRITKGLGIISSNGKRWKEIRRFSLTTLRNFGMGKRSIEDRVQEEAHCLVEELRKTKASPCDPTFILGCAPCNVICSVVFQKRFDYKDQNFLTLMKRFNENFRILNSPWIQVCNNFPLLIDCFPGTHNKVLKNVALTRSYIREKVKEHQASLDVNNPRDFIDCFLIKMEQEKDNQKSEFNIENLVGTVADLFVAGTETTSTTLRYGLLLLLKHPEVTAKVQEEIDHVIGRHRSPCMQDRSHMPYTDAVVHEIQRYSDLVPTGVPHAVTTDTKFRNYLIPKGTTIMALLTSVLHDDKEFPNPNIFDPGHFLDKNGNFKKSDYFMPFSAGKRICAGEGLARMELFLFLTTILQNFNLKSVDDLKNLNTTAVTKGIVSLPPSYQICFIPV
pKi: −log10 of the molar value.
parameter: pKi

INSERT INTO results (compound, measurement) VALUES
  ('CC#CC(=O)NCCCC(=O)c1nc(-c2ccc(C(=O)Nc3ccccn3)cc2)c2c(N)nccn12 [ACP‐5862]', 5.40);

----------
test: Unbound fraction in plasma; format: in vitro ADME; conditions: plasma
parameter: fraction unbound

INSERT INTO assay_data (smiles_code, measurement) VALUES
  ('CC#CC(=O)N1CCC[C@H]1c1nc(-c2ccc(C(=O)Nc3ccccn3)cc2)c2c(N)nccn12', 0.026);
